- Test system: HOP-62
- Experiment: NCI tumour cell line growth inhibition, 48 h
Active and inactive are the calls of the source. No stated cut-off is given here; in the data, active = GI50 up to about 1.1 µM and inactive = higher.
# GI50 per record follows

>  <Molecule>
Cc1ncc([N+](=O)[O-])n1CCn1ccnc1[N+](=O)[O-]

>  <GI50>
> 100 µM (inactive)

$$$$
>  <Molecule>
O=C1C2C3C=C4c5ccccc5N(c5ccccc5)C4(C2C(=O)N1c1ccccc1)C1C(=O)N(c2ccccc2)C(=O)C31 (stereo not given)

>  <GI50>
> 100 µM (inactive)

$$$$
>  <Molecule>
CN(C)c1ncnc2c1Cc1ccccc1C(=O)N2C

>  <GI50>
> 100 µM (inactive)

$$$$
>  <Molecule>
CO/N=C(/C)c1cccc(Nc2nc3ccccc3c3[nH]c4ccccc4c23)c1

>  <GI50>
9.66 µM (inactive)

$$$$
>  <Molecule>
COc1c(Cl)ccc(Cl)c1-c1nnc(-c2c(Cl)c(Cl)c(Cl)c(Cl)c2-c2nc3cc(C(=O)c4ccccc4)ccc3[nH]2)o1

>  <GI50>
43.5 µM (inactive)

$$$$
>  <Molecule>
Cc1nc2c(C)c3c([nH]c4ccc(Cl)cc43)c(C)c2c(O)c1C

>  <GI50>
4.23 µM (inactive)

$$$$
>  <Molecule>
NCCSc1nc(-c2ccccc2)c(-c2ccccc2)o1

>  <GI50>
> 100 µM (inactive)

$$$$
>  <Molecule>
CCN1C(=O)N(C)C(O)c2c1nc1ccccn1c2=O (stereo not given)

>  <GI50>
28.1 µM (inactive)

$$$$
>  <Molecule>
Cc1ccnc(NC(=S)Nc2cccc(Cl)c2)c1

>  <GI50>
78.9 µM (inactive)

$$$$
>  <Molecule>
O=c1c2cc([N+](=O)[O-])cnc2sn1-c1ccc([N+](=O)[O-])cc1

>  <GI50>
52 µM (inactive)

$$$$

====

- Test system: SK-MEL-5
- Experiment: NCI tumour cell line growth inhibition, 48 h
Calls of active or inactive are those of the source. Rule as the data show it: active = GI50 up to about 1.1 µM and inactive = higher.
Outcome codes: active, inactive

>  <Compound>
CC(=O)Nc1ccc(-c2nc3ccccc3s2)cc1Br

>  <Assigned Label>
inactive

$$$$
>  <Compound>
O=C(Nc1ccccc1)c1cc2cc(CCl)ccc2oc1=O

>  <Assigned Label>
inactive

$$$$
>  <Compound>
COc1c(OC)c(OC)c2c(=O)c(OC)c(-c3ccc4c(c3)OCO4)oc2c1OC

>  <Assigned Label>
inactive

$$$$
>  <Compound>
Oc1cc(-c2ccccc2Cl)nc2cc3c(cc12)OCO3

>  <Assigned Label>
active

$$$$
>  <Compound>
Cc1ccc(Nc2nc(=O)c3c4ccccc4n(C(=O)OC(C)(C)C)c3s2)cc1

>  <Assigned Label>
inactive

$$$$
>  <Compound>
O=C1OC(Cl)C(N=P(c2ccccc2)(c2ccccc2)c2ccccc2)=C1Cl (stereo not given)

>  <Assigned Label>
inactive

$$$$
>  <Compound>
C[C@H](CCC(=O)NCC(=O)O)[C@H]1CC[C@H]2[C@@H]3[C@H](O)C[C@@H]4C[C@H](O)CC[C@]4(C)[C@H]3CC[C@]12C

>  <Assigned Label>
inactive

$$$$
>  <Compound>
CCCCCCCCCCCCCCCCc1c(O)nc(NN)nc1C(=O)OC

>  <Assigned Label>
inactive

$$$$
>  <Compound>
S=C(Nc1ccc2c(c1)oc1ccccc12)c1cccnc1

>  <Assigned Label>
inactive

$$$$
>  <Compound>
Cc1[nH]c2ccccc2c1C1Cc2ccccc2N1C(=O)/C=C\C(=O)O (stereo not given)

>  <Assigned Label>
inactive

$$$$
